B1: library; numbered along this chain (parent)
chain: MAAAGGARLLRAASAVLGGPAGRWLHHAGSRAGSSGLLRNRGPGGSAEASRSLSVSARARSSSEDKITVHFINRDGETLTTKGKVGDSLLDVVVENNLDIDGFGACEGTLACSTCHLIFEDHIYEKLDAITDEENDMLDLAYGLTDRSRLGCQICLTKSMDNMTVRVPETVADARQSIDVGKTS

# Variants of: B1
# procedure.summary: scaled log2 fold change in cell abundance, elesclomol vs control (0 = silent mean, 1 = nonsense mean) (scaled log2 ratio); higher = higher viability under elesclomol (loss of FDX1 cuproptosis function);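 note: variant abundance is its share of total variant reads in each endpoint sample, from next-generation sequencing of the integrated ORF PCR-amplified out of genomic DNA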
# recorded.conditions: with HEK293T FDX1 KO; elesclomol 40 nM; glucose 10 mM; 11 days
Class (required): determined from scaled log2 fold change; valid ranges are class 1 = under -0.2, class 2 = from -0.2 up to 0.3, class 3 = 0.3 and over

Sample answers from the record:
Please report the category associated with `N135G` , nothing else.
class 1

Please report the category associated with `E169P` , nothing else.
class 3

Please report the category associated with `F71T` , nothing else.
class 3

Please report the category associated with `S34I` , nothing else.
class 1

Please report the category associated with `V85C` , nothing else.
class 2

Please report the category associated with `W24F` , nothing else.
class 3

Please report the category associated with `R8N` , nothing else.
class 2

Please report the category associated with `E134M` , nothing else.
class 3

Please report the category associated with `A21S` , nothing else.
class 2

Please report the category associated with `N162Y` , nothing else.
class 2

More entries:
Please report the category associated with `S113L` , nothing else.
class 2

Please report the category associated with `M160H` , nothing else.
class 2

Please report the category associated with `R58Q` , nothing else.
class 1

Please report the category associated with `R58I` , nothing else.
class 3

Please report the category associated with `H27Y` , nothing else.
class 2

Please report the category associated with `G22K` , nothing else.
class 3
